Here the recorded pIC50 is given for each entry.
Target: Avi-KRAS G12R (1-169) GppNHp/RAF1 RBD-3xFLAG (52-151) (Homo sapiens, UniProt P01116, G12R)
Construct: Avi-KRAS G12R (1-169)
Sequence (P01116 1-169 isoform P01116-2 G12R): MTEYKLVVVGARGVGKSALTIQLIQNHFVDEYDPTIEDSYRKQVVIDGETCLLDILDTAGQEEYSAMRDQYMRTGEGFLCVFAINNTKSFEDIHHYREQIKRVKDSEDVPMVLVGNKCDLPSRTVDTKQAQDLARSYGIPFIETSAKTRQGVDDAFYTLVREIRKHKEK
Assay: Raf1-KRAS G12R-GppNHP disruption HTRF assay (Biological Example 1)
Assay type: binding
Settings: KRAS G12R, GppNHp-loaded; class symbols
pIC50: −log10 of the molar value.
reported endpoint: pIC50

INSERT INTO assay_data (molecule, reported_endpoint, result) VALUES
  ('CCN(c1nc(OC[C@@]23CCCN2C[C@H](F)C3)nc2c(F)c(-c3ccc(F)c4sc(N)c(C#N)c34)c(C(F)(F)F)cc12)[C@H]1CCN(C(=O)c2cc(C)no2)C1 (atropisomer, axis not shown)', 'pIC50', '> 7.00'),
  ('CC1c2cc(C(=O)N(C)C)nn2CCN1c1nc(OCC23CCCN2CC(F)C3)nc2c(F)c(-c3ccc(F)c4sc(N)c(C#N)c34)c(C(F)(F)F)cc12 (stereo not drawn) [Compound 701]', 'pIC50', '5.00 to 6.00'),
  ('CN(Cc1cccnc1)c1nc(OC[C@@]23CCCN2C[C@H](F)C3)nc2c(F)c(-c3ccc(F)c4sc(N)c(C#N)c34)c(C(F)(F)F)cc12 (atropisomer, axis not shown)', 'pIC50', '6.00 to 7.00');
